System: NCI-H522 lung
ASSAY_METHOD_TEXT: NCI-60 one-dose screen, 48 h (100 = growth as untreated, 0 = no growth, -100 = all killed)
CONDITION_SET: 10 µM unless noted
This is part of a sample that, as a whole, favours compounds with a hit. Of some 83,000 tested, about 20% had one in any assay. Activity calls are given as the source filed them. Rule for the calls: active = growth percent below 10; inactive = the rest.
VALUE_KIND: growth

[Q] I have this compound here, COc1cccc(CC(C)=C(c2ccc(OCCN(C)C)cc2)c2ccc(OCCN(C)C)cc2)c1 , and I need its recorded growth.
[A] -39.8% (active)

[Q] And then O=S(=O)(NCCCNc1nccc(-n2ccc3cccnc32)n1)c1cccc(C(F)(F)F)c1 , what is it?
[A] 98.1% (inactive)

[Q] And then Cc1cc(N/N=C/c2nc(-c3ccc(Br)cc3)oc2C)c2cc(Br)ccc2n1 , what is it?
[A] 48% (inactive)

[Q] And then CCOC(=O)c1cn2c3c(cccc3c1=O)C(=O)/C(=C/c1cccc(Cl)c1Cl)C2 , what is it?
[A] 73.1% (inactive)

[Q] And then O=c1cc(Cc2ccc([N+](=O)[O-])cc2)[nH]c(=O)[nH]1 , what is it?
[A] 90.5% (inactive)

[Q] And then O=C(Nc1ccc(Cl)c(Cl)c1)NS(=O)(=O)c1cnccc1Oc1ccc(F)cc1 , what is it?
[A] 20.2% (inactive)

[Q] And then Cc1c(C(N)=O)sc2c1c(=O)n(Cc1ccccc1)c1nnc(Nc3ccccc3)n21 , what is it?
[A] 87.1% (inactive)

[Q] And then COc1ccc(-n2c(=O)sc3c(Cl)nc(C)nc32)c(OC)c1 , what is it?
[A] 78.5% (inactive)

[Q] And then CCOC(=O)c1ccc2c(c1)c1c(C)c3cccnc3c(C)c1n2C , what is it?
[A] 49.1% (inactive)

[Q] And then Cc1cc(N/N=C/c2nc(-c3ccccc3)oc2C)c2cc(Br)ccc2n1 , what is it?
[A] 80.6% (inactive)

====

Test system: NCI-H322M lung
ASSAY_METHOD_TEXT: NCI-60 one-dose screen, 48 h (100 = growth as untreated, 0 = no growth, -100 = all killed)
CONDITION_SET: 10 µM unless noted
Compounds without any hit were thinned out: in the full panel of roughly 83,000, 20% have a hit.
Kindly state growth for each of the entries shown.
# number only, unit % dropped from output

[Q] I have this compound here, COc1ccc(/C=C\c2cc(OC)c(OC)c(OC)c2)cc1OC(=O)c1cccc(Cn2cc(CCOC(=O)c3cccc(Cn4nnc5c4C(=O)c4ccccc4C5=O)c3)nn2)c1 , and I need its recorded growth.
[A] 50.5

[Q] And then COc1cc(C2NN=C3c4ccccc4CCC32)cc(OC)c1OC (stereo not given) , what is it?
[A] 88

[Q] And then COc1ccc(NC(=O)c2cc(OC)c(OC)c(OC)c2)cc1O , what is it?
[A] 68.2

[Q] And then CC(C)(C)n1cc(-c2ccnc(NCCCNS(=O)(=O)c3ccc(Br)cc3)c2)c(-c2cccc(O)c2)n1 , what is it?
[A] 30.9

[Q] And then O=S(=O)(NCCCNc1nccc(-n2ccc3cccnc32)n1)c1cccc(C(F)(F)F)c1 , what is it?
[A] 106

[Q] And then CC(C)(C)n1cc(-c2ccnc(NCCNS(=O)(=O)c3ccc(F)cc3)c2)c(-c2cccc(O)c2)n1 , what is it?
[A] 72.3

[Q] And then CCCCCCCCCCCCNC(=O)[C@H]1CSC(c2cc3ccccc3s2)N1 (stereo not given in full) , what is it?
[A] 16.6

[Q] And then CN(C)CCOC(=O)Nc1ccccc1Cl , what is it?
[A] 104

[Q] And then Cc1cccc(/C=N/Nc2cc(C)c3cccc(C)c3n2)n1 , what is it?
[A] 100

[Q] And then O=C(NS(=O)(=O)c1ccc2ccccc2c1)n1cc(-c2ccncc2)c(-c2ccc(Cl)c(O)c2)n1 , what is it?
[A] 116

[Q] And then O=C1C(Cl)=C(Nc2ccccn2)C(=O)c2ccccc21 , what is it?
[A] 115

[Q] And then NC(=S)N/N=C(/CCN1CCCC1)CC(C1=C(O)C2=CCCCC2OC1=O)c1ccccc1 (stereo not given) , what is it?
[A] 85.7

[Q] And then O=C(Nc1ccc(NCCN2CCOCC2)nc1)c1ccc([N+](=O)[O-])cc1 , what is it?
[A] 107

[Q] And then S=c1[nH]nc(-c2cc3ccc2CCc2ccc(cc2)CC3)n1-c1ccccc1 , what is it?
[A] 96.4

[Q] And then COc1ccc(C2C=C(c3ccc(OC)c(OC)c3)N=C3SC=C(C)N32)c(Br)c1 (stereo not given) , what is it?
[A] 95.8

[Q] And then C=C1CCC2C3(C)COC(C)(C)OC3CCC2(C)C1C/C=C1/C(=O)OCC1Oc1ccccc1OC (stereo not given) , what is it?
[A] 96.6

[Q] And then COc1ccc(S(=O)(=O)n2cc(C(=O)C(=O)Nc3ccncc3)c3ccccc32)cc1F , what is it?
[A] 88.6

[Q] And then Cc1cc(C)n(-c2nnc3n2N=C(c2ccc(-c4ccccc4)cc2)CS3)n1 , what is it?
[A] 71.1

[Q] And then CCN(CC)CCC(CNc1ccnc2cc(Cl)ccc12)c1ccc(Cl)cc1 (stereo not given) , what is it?
[A] 34.6

[Q] And then Cc1ccc(S(=O)(=O)c2nc(-c3ccccc3)oc2S(C)(=O)=O)cc1 , what is it?
[A] 106

====

Tested on: T-47D breast
ASSAY_METHOD_TEXT: NCI-60 one-dose screen, 48 h (100 = growth as untreated, 0 = no growth, -100 = all killed)
CONDITION_SET: 10 µM unless noted
Compounds without any hit were thinned out: in the full panel of roughly 83,000, 20% have a hit.
# class 1 = growth below 50% (exclusive); class 0 = growth at/above 50%

[Q] Is the reported growth for CC(C)(C)n1cc(-c2ccnc(NCCCNS(=O)(=O)c3ccc(Cl)cc3)c2)c(-c2cccc(O)c2)n1 strictly below 50%?
[A] class 1

[Q] And then Cc1ccc(S(=O)(=O)n2cc(C(=O)C(=O)Nc3ccncc3)c3ccccc32)cc1 , what is it?
[A] class 1

[Q] And then COc1ccc(CN2CCc3c(Sc4ccccc4)nc(N)nc3C2=O)c(OC)c1 , what is it?
[A] class 1

[Q] And then CC(C)CSc1nc(NN)c(C#N)c(-c2ccccc2)n1 , what is it?
[A] class 0

[Q] And then CN(CCCCCl)P(=O)(OCc1ccc([N+](=O)[O-])o1)C(F)(F)C[C@H](NC(=O)CNC(=O)c1ccc(N=[N+]=[N-])cc1)C(=O)NCCc1ccc(O)cc1 (some centres undefined) , what is it?
[A] class 0

[Q] And then COc1ccc2c(c1)[nH]c(=O)c1c3cccc(F)c3cn21 , what is it?
[A] class 0

[Q] And then COc1ccc(S(=O)(=O)NCCCNc2nccc(-c3c(-c4cccc([N+](=O)[O-])c4)nc4sccn34)n2)cc1 , what is it?
[A] class 1

[Q] And then c1coc(CNc2ccnc(Nc3ccc(OCCN4CCCCC4)cc3)n2)c1 , what is it?
[A] class 0

[Q] And then COc1ccc(-c2c(N)n[nH]c2-c2cc3c(c(OC)c2OC)OCO3)cc1 , what is it?
[A] class 0

====

System: U251 CNS
ASSAY_METHOD_TEXT: NCI-60 one-dose screen, 48 h (100 = growth as untreated, 0 = no growth, -100 = all killed)
CONDITION_SET: 10 µM unless noted
Compounds without any hit were thinned out: in the full panel of roughly 83,000, 20% have a hit.
VALUE_KIND: growth (%)
# number only, unit % dropped from output

[Q] I have this molecule here, O=C(C1=Cc2cc3ccccc3n2Cc2cnnn21)c1ccccc1 , and I need its recorded growth.
[A] 32.6

[Q] And then CCOC(=O)c1c(NS(=O)(=O)c2ccc(C)cc2)sc2c1CCC1(C2)OCCO1 , what is it?
[A] 99.1

[Q] And then O=[N+]([O-])c1ccc(/C=C/C2(CCl)OCCO2)cc1 , what is it?
[A] 97.3

[Q] And then COc1cc(-c2nc(-c3nc4ccc(Cl)cc4[nH]3)cc3c2[nH]c2ccccc23)cc(OC)c1OC , what is it?
[A] 80.1

[Q] And then O=C(Nc1ccc(NCCN2CCOCC2)nc1)c1ccc([N+](=O)[O-])cc1 , what is it?
[A] 102

[Q] And then O=C(Nc1cccc(-n2cc(-c3ccncc3)c(-c3ccc(Cl)c(O)c3)n2)c1)Nc1cccc(C(F)(F)F)c1 , what is it?
[A] 15.8

[Q] And then COc1ccc(-c2cc(-c3ccccc3)nc(SCCCC(=O)NO)n2)cc1OC , what is it?
[A] 1.87

[Q] And then CC(=O)Oc1csc(N(C(C)=O)c2cccc(C(F)(F)F)c2)n1 , what is it?
[A] 88.3

[Q] And then Cc1nn(-c2ccc(Cl)cc2)c2ncnc(N/N=C/c3cccc([N+](=O)[O-])c3)c12 , what is it?
[A] 82.3

[Q] And then CC(=O)OC[C@]12CC[C@H]3[C@@H](C[C@H]4O[C@]45CC=CC(=O)[C@]35C)[C@]1(O)CC[C@@]2(O)[C@@](C)(O)C1CC(C)=C(C)C(=O)O1 (stereo not given in full) , what is it?
[A] -14.5

[Q] And then C=C1C(=O)O[C@@H]2[C@@H]3O[C@@](C)(CC/C=C(\C)CCC[C@@H]2C)[C@H](O)C[C@@H]13 , what is it?
[A] 56.4

[Q] And then COc1cc(Cn2cc3c(c2)-c2oncc2CC3)cc(OC)c1OC , what is it?
[A] 17.2

[Q] And then O=C(NCc1cn(Cc2cccc(Oc3ccccc3)c2)nn1)c1cccnc1Nc1ccc(F)cc1 , what is it?
[A] 55.3

[Q] And then CCN(CC)CCOc1ccc(Cl)c(C)c1 , what is it?
[A] 107

[Q] And then CCOC(=O)/C(C#N)=C1/C(=O)Nc2ccccc21 , what is it?
[A] 113

[Q] And then Cn1cc(-c2cnc3ccc(NC(=O)Nc4ccc(F)c(Br)c4)cc3n2)cn1 , what is it?
[A] 44.9

[Q] And then CCCCCCCCN(CCCCCCCC)CCCCCCNc1cc(OC)cc2cccnc12 , what is it?
[A] 84.9

[Q] And then Nc1nnc(-c2ccc3ccccc3c2O)o1 , what is it?
[A] 90.4

[Q] And then CC12CCC3C4(C)COC(c5ccco5)OC4CCC3(C)C1CC(C1=CCOC1=O)O2 (stereo not given) , what is it?
[A] 110

[Q] And then COc1ccc(/C=C\c2cc(OC)c(OC)c(OC)c2)cc1OC(=O)c1cccc(Cn2cc(CCOC(=O)c3cccc(Cn4nnc5c4C(=O)c4ccccc4C5=O)c3)nn2)c1 , what is it?
[A] 23.8
